From: PubChem BioAssay AID2781

Target: Menin (Homo sapiens) (UniProt O00255)
Sequence (O00255 whole entry, looked up): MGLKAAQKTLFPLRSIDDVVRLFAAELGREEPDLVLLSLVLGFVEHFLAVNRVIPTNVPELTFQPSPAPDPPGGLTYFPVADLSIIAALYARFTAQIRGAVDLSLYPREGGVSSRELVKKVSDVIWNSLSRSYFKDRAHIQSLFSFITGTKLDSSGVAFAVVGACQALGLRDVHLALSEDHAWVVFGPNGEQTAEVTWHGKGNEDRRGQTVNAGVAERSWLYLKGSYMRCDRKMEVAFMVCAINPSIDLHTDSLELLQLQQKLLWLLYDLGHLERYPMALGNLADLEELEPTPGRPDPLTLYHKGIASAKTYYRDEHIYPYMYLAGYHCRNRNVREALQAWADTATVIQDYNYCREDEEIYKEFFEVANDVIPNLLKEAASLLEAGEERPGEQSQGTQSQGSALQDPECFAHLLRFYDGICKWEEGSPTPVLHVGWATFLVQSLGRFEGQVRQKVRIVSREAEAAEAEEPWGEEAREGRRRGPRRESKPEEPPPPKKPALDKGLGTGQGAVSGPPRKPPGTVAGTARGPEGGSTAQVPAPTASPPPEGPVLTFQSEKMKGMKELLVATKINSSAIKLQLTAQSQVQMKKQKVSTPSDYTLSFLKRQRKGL
Assay: Confirmation of Inhibitors Targeting the Menin-MLL Interaction in MLL Related Leukemias: NMR spectroscopy to verify direct binding of compounds to menin
Conditions: purified menin, NMR STD binding, 100 uM
The source made the active and inactive calls.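 How the source made its calls: active means compound whose NMR saturation transfer difference test with menin is positive, showing direct binding to the protein; inactive means the rest.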
Choose one outcome from this list and give only that: active, inactive

Below, 3 molecules whose answers are already recorded.
molecule	classAssignment
Cc1nc(N2CCN(C)CC2)c2c3c(sc2n1)CCCC3	inactive
CC(c1ccccc1)c1nnc(NC(=O)Nc2ccccc2F)s1 (configuration not stated)	inactive
COc1ccccc1NS(=O)(=O)c1cc(NC(=O)Nc2cccc(C)c2)ccc1N1CCCCC1	inactive

Give the logged outcome of this assay for the following molecule: "CCC(=O)Nc1ccc(-c2cc(-c3ccccc3)nc(-c3ccc(NC(=O)CC)cc3)n2)cc1"
inactive

Another molecule to look at: "COC(=O)[C@H](C)NC(=O)c1cc2c(cn1)[nH]c1ccccc12"
inactive

Queued: CCCC(c1nnnn1Cc1cccs1)N1CCN(C2CCCC2)CC1 (configuration not stated)
active

Then this molecule: "NS(=O)(=O)c1ccc(NC(=O)c2ccc(-c3ccccc3)cc2)cc1"
inactive

Another molecule to check: CC1CCCCN1S(=O)(=O)c1ccc(C(=O)Nc2ccccc2-c2nc3ccccc3[nH]2)cc1 (configuration not stated)
inactive

// same read-out, input: "O=C(O)CSc1cc(NS(=O)(=O)c2ccc(Br)cc2)c2ccccc2c1O"
inactive

Param item: CN(C)c1ccc(C2CC(=O)C=C(Nc3ccccc3N)C2)cc1 (configuration not stated)
inactive

Item: "Cc1cc(N/N=C/c2ccc(O)cc2)c2cccc(C)c2n1"
inactive

* * *

Target: Menin (Homo sapiens) (UniProt O00255)
Assay: Confirmation of Inhibitors Targeting the Menin-MLL Interaction in MLL Related Leukemias: NMR spectroscopy to verify direct binding of compounds to menin
Conditions: purified menin, NMR STD binding, 100 uM
Activity calls are given as the source filed them.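 Rule for the calls: active = compound whose NMR saturation transfer difference test with menin is positive, showing direct binding to the protein; inactive = the rest.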
Bench note: report the call from yes = active, no = inactive

# count of solved cases: 3
compound	classAssignment
NC(=NCCCCCCN=C(N)/N=C(\N)Nc1ccc(Cl)cc1)/N=C(\N)Nc1ccc(Cl)cc1	no
COc1ccc2[nH]c3c(C)c4ccncc4c(C)c3c2c1	no
CCOC(=O)c1cnc2ccc(OCC)cc2c1N1CCN(C)CC1	yes

# outcome recorded in this test, key = "O=C(O)c1ccccc1NS(=O)(=O)c1cccc(-n2sc3ccccc3c2=O)c1"
no

And CN(CCOc1ccc(Cl)cc1)CC(O)c1ccccc1 (stereo unspecified) ?
no

Then what about the compound CCc1ccc2c(c1)C(NC(C)=O)C(=O)N2CCN1CCOCC1 (stereo unspecified) ?
no

* * *

Target: Menin (Homo sapiens) (UniProt O00255)
Assay: Confirmation of Inhibitors Targeting the Menin-MLL Interaction in MLL Related Leukemias: NMR spectroscopy to verify direct binding of compounds to menin
Details: purified menin, NMR STD binding, 100 uM
Description: qHTS Assay for Inhibitors Targeting the Menin-MLL Interaction in MLL Related Leukemias NIH Chemical Genomics Center [NCGC] NIH Molecular Libraries Probe Centers Network [MLPCN] […] We have developed and optimized a fluorescence polarization-based assay for the identification of Menin-MLL inhibitors. […]
Calls of active or inactive are those of the source.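 Rule for the calls: active = compound whose NMR saturation transfer difference test with menin is positive, showing direct binding to the protein; inactive = the rest.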
Response enum: active, inactive

Please review the following examples before continuing.
molecule	classAssignment
O=C1C(SCCO)=C(SCCO)C(=O)c2ccccc21	inactive
CNC[C@H](CC1CCCCC1)NC[C@H](Cc1ccccc1)NCCC12CC3CC(CC(C3)C1)C2	inactive

Any idea what this test logged for CCOc1ccc2c(c1)C(NC(C)=O)C(=O)N2CCN1CCOCC1 (stereo unspecified) ?
inactive

What about this molecule? "CCOc1cc(CNCCc2ccc(S(N)(=O)=O)cc2)ccc1OCc1ccccc1"
active

Try "CS(=O)(=O)c1ccc2nc(NC(=O)Nc3cccc(Cl)c3)sc2c1" next.
inactive

Next molecule up: CCNc1ccccc1CP(=O)(c1ccccc1)c1ccccc1O (stereo unspecified)
inactive
